Biological target: Estrogen receptor (Homo sapiens) (UniProt Q92731+P03372)
Sequence (Q92731 whole entry, looked up, one chain of several): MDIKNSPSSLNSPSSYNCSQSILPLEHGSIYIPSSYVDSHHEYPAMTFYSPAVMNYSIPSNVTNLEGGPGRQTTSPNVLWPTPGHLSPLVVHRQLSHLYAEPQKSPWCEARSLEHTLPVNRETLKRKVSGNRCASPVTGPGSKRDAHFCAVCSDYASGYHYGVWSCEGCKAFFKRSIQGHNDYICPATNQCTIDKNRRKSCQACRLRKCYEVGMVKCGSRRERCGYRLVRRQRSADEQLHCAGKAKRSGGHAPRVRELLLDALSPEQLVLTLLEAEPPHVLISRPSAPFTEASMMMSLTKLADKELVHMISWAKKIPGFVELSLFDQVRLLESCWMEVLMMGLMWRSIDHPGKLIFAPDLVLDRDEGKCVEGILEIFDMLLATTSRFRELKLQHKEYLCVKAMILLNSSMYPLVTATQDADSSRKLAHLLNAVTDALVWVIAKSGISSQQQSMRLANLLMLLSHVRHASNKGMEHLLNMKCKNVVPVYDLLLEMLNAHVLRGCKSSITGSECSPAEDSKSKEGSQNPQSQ
Assay: Ratio of RBA for human estrogen receptor alpha to RBA for human estrogen receptor beta
Type: protein assay
Measured Ratio, listed per entry for reference.
OBSERVATION TYPE: Ratio

> print(dat)
                                    molecule  observed
 1  COc1ccc(C2=C(c3ccc(O)cc3)C3CC(S(=O)(=O)c4ccccc4)C2O3)cc1 (centres undefined)         1
 2  COC(=O)C1=C(c2ccccc2)C2OC1C(c1ccccc1)=C2c1ccccc1 (centres undefined)      0.29
 3  O=S(=O)(c1ccccc1)C1CC2OC1C(c1ccccc1)=C2c1ccccc1 (centres undefined)      0.62
 4  CCOC(=O)C1C2OC(C(c3ccc(O)cc3)=C2c2ccc(O)cc2)C1C(=O)OCC (centres undefined)      0.58
 5  COC(=O)C1=C(c2ccc(O)cc2)C2OC1C(c1ccccc1)=C2c1ccccc1 (centres undefined)      0.39
 6  O=S(=O)(c1ccccc1)C1CC2OC1C(c1cccc(O)c1)=C2c1ccc(O)cc1 (centres undefined)       1.9
 7  O=S(=O)(Oc1ccccc1)C1CC2OC1C(c1ccccc1)=C2c1ccccc1 (centres undefined)      0.57
 8  CCS(=O)(=O)C1CC2OC1C(c1ccc(O)cc1)=C2c1ccc(O)cc1 (centres undefined)       1.3
 9  O=S(=O)(Oc1ccc(O)cc1)C1CC2OC1C(c1ccc(O)cc1)=C2c1ccc(O)cc1 (centres undefined)        14
10  O=S(=O)(Oc1ccc(O)cc1)[C@H]1CC2OC1C(c1ccccc1)=C2c1ccccc1 (stereo in doubt; endo)      0.86
11  O=C1OC(=O)C2C3OC(C(c4ccccc4)=C3c3ccccc3)C12 (centres undefined)       0.7
12  O=C1C2C3OC(C(c4ccc(O)cc4)=C3c3ccc(O)cc3)C2C(=O)N1c1ccccc1 (centres undefined)      0.77
13  COc1ccc(OS(=O)(=O)C2CC3OC2C(c2ccc(O)cc2)=C3c2ccc(O)cc2)cc1 (centres undefined)       3.3
14  CN1C(=O)C2C3OC(C(c4ccc(O)cc4)=C3c3ccc(O)cc3)C2C1=O (centres undefined)       0.8
15  O=S(=O)(c1ccccc1)C1CC2OC1C(c1ccc(O)cc1)=C2c1ccc(O)cc1 (centres undefined)        11
16  COc1ccc(C2=C(c3ccc(O)cc3)C3CC(S(=O)(=O)Oc4ccccc4)C2O3)cc1 (centres undefined)       8.9
17  COC(=O)C1=C(C(=O)OC)C2OC1C(c1ccc(O)cc1)=C2c1ccc(O)cc1       1.5
18  O=S(=O)(Oc1ccc(O)cc1)[C@H]1CC2OC1C(c1ccccc1)=C2c1ccccc1 (stereo in doubt; exo)      0.82
19  O=S(=O)(Oc1ccccc1)C1CC2OC1C(c1cccc(O)c1)=C2c1ccc(O)cc1 (centres undefined)       4.3

----------
Target: Estrogen receptor beta (Homo sapiens) (UniProt Q92731)
Sequence (Q92731 whole entry): as the sequence (Q92731 whole entry, looked up, one chain of several) above
Test: Displacement of [3H]estradiol from human ERbeta relative to estradiol
Quick rule: RBA of at least 0.06% means 1 (yes), below that means 0 (no).

> print(dat)
                                    molecule  label.class
 1  O=S(=O)(c1ccccc1)C1CC2OC1C(c1ccccc1)=C2c1ccccc1 (centres undefined)       0 (no)
 2  COC(=O)C1=C(C(=O)OC)C2OC1C(c1ccc(O)cc1)=C2c1ccc(O)cc1       0 (no)
 3  O=S(=O)(Oc1ccccc1)C1CC2OC1C(c1cccc(O)c1)=C2c1ccc(O)cc1 (centres undefined)      1 (yes)
 4  COC(=O)C1=C(c2ccccc2)C2OC1C(c1ccccc1)=C2c1ccccc1 (centres undefined)       0 (no)
 5  O=S(=O)(Oc1ccc(O)cc1)C1CC2OC1C(c1ccc(O)cc1)=C2c1ccc(O)cc1 (centres undefined)      1 (yes)
 6  CCS(=O)(=O)C1CC2OC1C(c1ccc(O)cc1)=C2c1ccc(O)cc1 (centres undefined)      1 (yes)
 7  O=S(=O)(Oc1ccc(O)cc1)[C@H]1CC2OC1C(c1ccccc1)=C2c1ccccc1 (stereo in doubt; endo)       0 (no)
 8  O=S(=O)(Oc1ccccc1)C1CC2OC1C(c1ccccc1)=C2c1ccccc1 (centres undefined)      1 (yes)
 9  COC(=O)C1=C(c2ccc(O)cc2)C2OC1C(c1ccccc1)=C2c1ccccc1 (centres undefined)       0 (no)
10  CCOC(=O)C1C2OC(C(c3ccc(O)cc3)=C2c2ccc(O)cc2)C1C(=O)OCC (centres undefined)       0 (no)
11  COc1ccc(C2=C(c3ccc(O)cc3)C3CC(S(=O)(=O)c4ccccc4)C2O3)cc1 (centres undefined)      1 (yes)
12  COc1ccc(C2=C(c3ccc(O)cc3)C3CC(S(=O)(=O)Oc4ccccc4)C2O3)cc1 (centres undefined)      1 (yes)
13  O=C1OC(=O)C2C3OC(C(c4ccccc4)=C3c3ccccc3)C12 (centres undefined)       0 (no)

----------
Target: UniProt:P03372
Assay: Displacement of [3H]estradiol from human ERalpha relative to estradiol
Label scheme, based on RBA: lower bin (below 0.01%), middle bin (0.01% to below 0.07%), upper bin (0.07% or more)

> print(dat)
                                   molecule  label.class
1  O=S(=O)(c1ccccc1)C1CC2OC1C(c1ccccc1)=C2c1ccccc1 (configuration not stated)    lower bin
2  O=C1OC(=O)C2C3OC(C(c4ccccc4)=C3c3ccccc3)C12 (configuration not stated)   middle bin
3  COC(=O)C1=C(c2ccc(O)cc2)C2OC1C(c1ccccc1)=C2c1ccccc1 (configuration not stated)   middle bin
4  CCOC(=O)C1C2OC(C(c3ccc(O)cc3)=C2c2ccc(O)cc2)C1C(=O)OCC (configuration not stated)   middle bin
5  COC(=O)C1=C(C(=O)OC)C2OC1C(c1ccc(O)cc1)=C2c1ccc(O)cc1    lower bin
6  COc1ccc(C2=C(c3ccc(O)cc3)C3CC(S(=O)(=O)Oc4ccccc4)C2O3)cc1 (configuration not stated)    upper bin
7  COc1ccc(OS(=O)(=O)C2CC3OC2C(c2ccc(O)cc2)=C3c2ccc(O)cc2)cc1 (configuration not stated)    upper bin
8  O=S(=O)(Oc1ccc(O)cc1)[C@H]1CC2OC1C(c1ccccc1)=C2c1ccccc1 (stereo in doubt; exo)   middle bin
9  O=S(=O)(c1ccccc1)C1CC2OC1C(c1ccc(O)cc1)=C2c1ccc(O)cc1 (configuration not stated)    upper bin

----------
Target: Estrogen receptor (Homo sapiens)
Sequence (whole entry): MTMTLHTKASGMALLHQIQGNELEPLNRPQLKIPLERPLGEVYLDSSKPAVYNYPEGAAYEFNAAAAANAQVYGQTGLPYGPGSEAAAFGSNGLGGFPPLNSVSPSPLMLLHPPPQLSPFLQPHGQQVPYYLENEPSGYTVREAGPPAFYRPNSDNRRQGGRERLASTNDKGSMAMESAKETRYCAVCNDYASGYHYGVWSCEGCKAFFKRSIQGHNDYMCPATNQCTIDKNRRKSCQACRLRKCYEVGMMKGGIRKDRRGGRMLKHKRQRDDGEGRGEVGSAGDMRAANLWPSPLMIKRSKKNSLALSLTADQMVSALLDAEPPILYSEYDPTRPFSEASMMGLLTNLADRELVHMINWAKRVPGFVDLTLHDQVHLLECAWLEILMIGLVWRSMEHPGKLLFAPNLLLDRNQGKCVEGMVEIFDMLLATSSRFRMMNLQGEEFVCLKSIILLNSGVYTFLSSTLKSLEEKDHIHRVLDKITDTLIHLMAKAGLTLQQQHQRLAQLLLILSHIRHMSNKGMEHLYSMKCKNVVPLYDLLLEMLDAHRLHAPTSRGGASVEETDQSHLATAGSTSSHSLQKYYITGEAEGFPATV
Test: Displacement of [3H]estradiol from human ERalpha relative to estradiol
Measured RBA, listed per entry for reference.
OBSERVATION TYPE: RBA (%)

> print(dat)
                                   compound                               tgt  observation.type  observed
1  O=S(=O)(c1ccccc1)C1CC2OC1C(c1cccc(O)c1)=C2c1ccc(O)cc1 (stereo not drawn)  Estrogen receptor (Homo sapiens)               RBA     0.069
2  O=S(=O)(Oc1ccccc1)C1CC2OC1C(c1ccccc1)=C2c1ccccc1 (stereo not drawn)  Estrogen receptor (Homo sapiens)               RBA     0.068
3  COc1ccc(C2=C(c3ccc(O)cc3)C3CC(S(=O)(=O)c4ccccc4)C2O3)cc1 (stereo not drawn)  Estrogen receptor (Homo sapiens)               RBA     0.068

Source of measurements: ChEMBL document CHEMBL1139477
